# target_under_test: Voltage-dependent T-type calcium channel subunit alpha-1H (Homo sapiens, UniProt O95180)
# test: Inhibition of human Cav3.2 expressed in tsA-201 cells at 10uM by patch clamp electrophysiology
# Type: cell-based
observation_type: inhibition (%)

Observe how each entry below is paired with its result.
                                   compound  observation_type  uom  reading
0  O=C(CC1c2ccccc2N=C(SCCCCCN2CCCC2)N1c1ccc(-c2ccccc2)cc1)NCc1ccccc1 (stereo not drawn)        inhibition    %     73.1
1  CN(C)CCCCCSC1=Nc2ccccc2C(CC(=O)NCc2ccc(F)cc2)N1c1ccc(-c2ccccc2)cc1 (stereo not drawn)        inhibition    %     83.1
2  O=C(CC1c2ccccc2N=C(SCCCCCN2CCCC2)N1c1ccc(-c2ccc(F)cc2)cc1)NCc1ccc(F)cc1 (stereo not drawn)        inhibition    %     76.6

I. O=C(CC1c2ccccc2N=C(SCCCCCN2CCCC2)N1c1ccc(-c2ccccc2)cc1)NCc1ccc(F)cc1 (stereo not drawn)
II. CN(C)CCCCCSC1=Nc2ccccc2C(CC(=O)NCc2ccc(F)cc2)N1c1ccccc1 (stereo not drawn)
III. O=C(CC1c2ccccc2N=C(SCCCCCN2CCCC2)N1c1ccccc1)NCc1ccc(F)cc1 (stereo not drawn)
q: Please put the entries in order of rising inhibition. List the labels according to the requested ordering.
a: II, III, I
(II: 7%, III: 40%, I: 69%)

###

# target_under_test: Voltage-dependent T-type calcium channel subunit alpha-1G (Homo sapiens)
# Sequence (O43497 whole entry): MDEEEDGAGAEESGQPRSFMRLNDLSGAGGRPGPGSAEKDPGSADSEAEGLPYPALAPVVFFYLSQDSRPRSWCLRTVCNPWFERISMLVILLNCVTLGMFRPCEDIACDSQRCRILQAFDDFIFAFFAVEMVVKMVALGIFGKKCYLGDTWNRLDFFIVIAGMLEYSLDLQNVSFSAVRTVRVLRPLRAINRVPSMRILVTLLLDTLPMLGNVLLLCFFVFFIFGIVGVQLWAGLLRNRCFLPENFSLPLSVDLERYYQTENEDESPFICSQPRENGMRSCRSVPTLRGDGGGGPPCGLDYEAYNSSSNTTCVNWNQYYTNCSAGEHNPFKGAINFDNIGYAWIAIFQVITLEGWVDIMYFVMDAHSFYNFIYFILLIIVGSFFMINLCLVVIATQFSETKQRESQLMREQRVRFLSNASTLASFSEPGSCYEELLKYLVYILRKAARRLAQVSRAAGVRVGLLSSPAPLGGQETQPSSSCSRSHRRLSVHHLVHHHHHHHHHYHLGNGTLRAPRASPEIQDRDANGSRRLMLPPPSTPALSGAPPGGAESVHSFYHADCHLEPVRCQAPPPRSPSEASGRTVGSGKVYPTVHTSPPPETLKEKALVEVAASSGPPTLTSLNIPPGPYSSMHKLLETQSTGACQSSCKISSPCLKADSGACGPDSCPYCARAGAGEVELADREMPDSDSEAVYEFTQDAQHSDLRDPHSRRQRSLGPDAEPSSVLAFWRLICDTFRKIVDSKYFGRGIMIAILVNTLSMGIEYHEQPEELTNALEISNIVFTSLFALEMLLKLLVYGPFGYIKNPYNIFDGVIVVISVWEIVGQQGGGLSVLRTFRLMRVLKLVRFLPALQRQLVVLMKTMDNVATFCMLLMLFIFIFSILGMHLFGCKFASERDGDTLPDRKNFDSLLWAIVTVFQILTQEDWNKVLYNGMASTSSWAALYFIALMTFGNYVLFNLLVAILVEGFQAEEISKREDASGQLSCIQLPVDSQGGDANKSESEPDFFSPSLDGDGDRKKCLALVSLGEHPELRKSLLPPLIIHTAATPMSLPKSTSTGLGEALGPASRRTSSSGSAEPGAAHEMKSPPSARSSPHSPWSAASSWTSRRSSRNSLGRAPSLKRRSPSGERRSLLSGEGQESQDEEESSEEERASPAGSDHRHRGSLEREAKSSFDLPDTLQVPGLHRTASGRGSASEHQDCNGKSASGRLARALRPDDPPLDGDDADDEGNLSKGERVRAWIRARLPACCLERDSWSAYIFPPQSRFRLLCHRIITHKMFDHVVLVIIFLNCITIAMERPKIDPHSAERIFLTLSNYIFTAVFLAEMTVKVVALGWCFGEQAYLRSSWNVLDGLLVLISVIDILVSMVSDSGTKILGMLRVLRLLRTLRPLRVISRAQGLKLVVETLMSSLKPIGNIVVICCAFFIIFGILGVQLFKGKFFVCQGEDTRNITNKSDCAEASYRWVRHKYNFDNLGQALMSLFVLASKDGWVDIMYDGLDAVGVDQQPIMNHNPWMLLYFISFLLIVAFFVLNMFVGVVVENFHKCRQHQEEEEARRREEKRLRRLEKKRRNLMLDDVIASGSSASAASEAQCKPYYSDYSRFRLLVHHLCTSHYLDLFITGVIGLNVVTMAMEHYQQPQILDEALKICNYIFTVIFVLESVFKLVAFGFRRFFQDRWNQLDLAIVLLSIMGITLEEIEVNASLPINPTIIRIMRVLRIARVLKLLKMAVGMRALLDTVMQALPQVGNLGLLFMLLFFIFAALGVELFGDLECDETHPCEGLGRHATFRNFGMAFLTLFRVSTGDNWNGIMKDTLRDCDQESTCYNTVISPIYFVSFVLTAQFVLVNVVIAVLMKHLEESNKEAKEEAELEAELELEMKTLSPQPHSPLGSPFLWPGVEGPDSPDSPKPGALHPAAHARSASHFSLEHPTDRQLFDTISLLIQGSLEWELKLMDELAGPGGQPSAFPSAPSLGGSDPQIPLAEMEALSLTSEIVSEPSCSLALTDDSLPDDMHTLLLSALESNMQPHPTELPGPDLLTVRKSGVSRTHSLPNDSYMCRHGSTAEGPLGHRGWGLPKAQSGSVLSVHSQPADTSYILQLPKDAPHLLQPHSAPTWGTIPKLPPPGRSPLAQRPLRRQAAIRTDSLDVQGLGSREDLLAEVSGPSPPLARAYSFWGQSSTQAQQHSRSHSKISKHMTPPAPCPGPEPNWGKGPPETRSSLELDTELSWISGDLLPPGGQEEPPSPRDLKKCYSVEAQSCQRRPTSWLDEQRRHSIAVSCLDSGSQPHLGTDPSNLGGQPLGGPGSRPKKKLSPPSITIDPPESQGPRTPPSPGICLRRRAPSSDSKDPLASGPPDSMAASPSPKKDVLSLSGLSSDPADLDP
# test: Inhibition of human Cav3.1 expressed in tsA-201 cells by patch clamp electrophysiology
observation_type: IC50 (µM)

In [3]: df
Out[3]:
                                   molecule  reading
0  CN(C)CCCCCSC1=Nc2ccccc2C(CC(=O)NCc2ccccc2)N1c1ccc(-c2ccc(F)cc2)cc1 (stereo unspecified)     0.25
1  CN(C)CCCCCSC1=Nc2ccccc2C(CC(=O)NCc2ccccc2)N1c1ccc(-c2ccccc2)cc1 (stereo unspecified)     7.77
2  CN(C)CCCCCSC1=Nc2ccccc2C(CC(=O)NCc2ccc(F)cc2)N1c1ccc(-c2ccc(F)cc2)cc1 (stereo unspecified)      0.4
3  O=C(CC1c2ccccc2N=C(SCCCCCN2CCCC2)N1c1ccc(-c2ccc(F)cc2)cc1)NCc1ccccc1 (stereo unspecified)     2.18
4  O=C(CC1c2ccccc2N=C(SCCCCCN2CCCC2)N1c1ccc(-c2ccccc2)cc1)NCc1ccc(F)cc1 (stereo unspecified)       15
5  CN(C)CCCCCSC1=Nc2ccccc2C(CC(=O)NCc2ccccc2)N1c1ccccc1 (stereo unspecified)     18.5

I. O=C(CC1c2ccccc2N=C(SCCCCCN2CCCC2)N1c1ccccc1)NCc1ccccc1 (stereo unspecified)
II. O=C(CC1c2ccccc2N=C(SCCCCCN2CCCC2)N1c1ccccc1)NCc1ccc(F)cc1 (stereo unspecified)
III. CN(C)CCCCCSC1=Nc2ccccc2C(CC(=O)NCc2ccc(F)cc2)N1c1ccc(-c2ccccc2)cc1 (stereo unspecified)
IV. O=C(CC1c2ccccc2N=C(SCCCCCN2CCCC2)N1c1ccc(-c2ccccc2)cc1)NCc1ccccc1 (stereo unspecified)
q: Highest IC50 first, then in falling order down to the smallest. Returns: the labels arranged in the requested order.
a: I, III, II, IV
(I: 77 µM, III: 27.4 µM, II: 13.5 µM, IV: 0.66 µM)

###

# target_under_test: Voltage-dependent T-type calcium channel subunit alpha-1I (Homo sapiens)
# Sequence (Q9P0X4 whole entry): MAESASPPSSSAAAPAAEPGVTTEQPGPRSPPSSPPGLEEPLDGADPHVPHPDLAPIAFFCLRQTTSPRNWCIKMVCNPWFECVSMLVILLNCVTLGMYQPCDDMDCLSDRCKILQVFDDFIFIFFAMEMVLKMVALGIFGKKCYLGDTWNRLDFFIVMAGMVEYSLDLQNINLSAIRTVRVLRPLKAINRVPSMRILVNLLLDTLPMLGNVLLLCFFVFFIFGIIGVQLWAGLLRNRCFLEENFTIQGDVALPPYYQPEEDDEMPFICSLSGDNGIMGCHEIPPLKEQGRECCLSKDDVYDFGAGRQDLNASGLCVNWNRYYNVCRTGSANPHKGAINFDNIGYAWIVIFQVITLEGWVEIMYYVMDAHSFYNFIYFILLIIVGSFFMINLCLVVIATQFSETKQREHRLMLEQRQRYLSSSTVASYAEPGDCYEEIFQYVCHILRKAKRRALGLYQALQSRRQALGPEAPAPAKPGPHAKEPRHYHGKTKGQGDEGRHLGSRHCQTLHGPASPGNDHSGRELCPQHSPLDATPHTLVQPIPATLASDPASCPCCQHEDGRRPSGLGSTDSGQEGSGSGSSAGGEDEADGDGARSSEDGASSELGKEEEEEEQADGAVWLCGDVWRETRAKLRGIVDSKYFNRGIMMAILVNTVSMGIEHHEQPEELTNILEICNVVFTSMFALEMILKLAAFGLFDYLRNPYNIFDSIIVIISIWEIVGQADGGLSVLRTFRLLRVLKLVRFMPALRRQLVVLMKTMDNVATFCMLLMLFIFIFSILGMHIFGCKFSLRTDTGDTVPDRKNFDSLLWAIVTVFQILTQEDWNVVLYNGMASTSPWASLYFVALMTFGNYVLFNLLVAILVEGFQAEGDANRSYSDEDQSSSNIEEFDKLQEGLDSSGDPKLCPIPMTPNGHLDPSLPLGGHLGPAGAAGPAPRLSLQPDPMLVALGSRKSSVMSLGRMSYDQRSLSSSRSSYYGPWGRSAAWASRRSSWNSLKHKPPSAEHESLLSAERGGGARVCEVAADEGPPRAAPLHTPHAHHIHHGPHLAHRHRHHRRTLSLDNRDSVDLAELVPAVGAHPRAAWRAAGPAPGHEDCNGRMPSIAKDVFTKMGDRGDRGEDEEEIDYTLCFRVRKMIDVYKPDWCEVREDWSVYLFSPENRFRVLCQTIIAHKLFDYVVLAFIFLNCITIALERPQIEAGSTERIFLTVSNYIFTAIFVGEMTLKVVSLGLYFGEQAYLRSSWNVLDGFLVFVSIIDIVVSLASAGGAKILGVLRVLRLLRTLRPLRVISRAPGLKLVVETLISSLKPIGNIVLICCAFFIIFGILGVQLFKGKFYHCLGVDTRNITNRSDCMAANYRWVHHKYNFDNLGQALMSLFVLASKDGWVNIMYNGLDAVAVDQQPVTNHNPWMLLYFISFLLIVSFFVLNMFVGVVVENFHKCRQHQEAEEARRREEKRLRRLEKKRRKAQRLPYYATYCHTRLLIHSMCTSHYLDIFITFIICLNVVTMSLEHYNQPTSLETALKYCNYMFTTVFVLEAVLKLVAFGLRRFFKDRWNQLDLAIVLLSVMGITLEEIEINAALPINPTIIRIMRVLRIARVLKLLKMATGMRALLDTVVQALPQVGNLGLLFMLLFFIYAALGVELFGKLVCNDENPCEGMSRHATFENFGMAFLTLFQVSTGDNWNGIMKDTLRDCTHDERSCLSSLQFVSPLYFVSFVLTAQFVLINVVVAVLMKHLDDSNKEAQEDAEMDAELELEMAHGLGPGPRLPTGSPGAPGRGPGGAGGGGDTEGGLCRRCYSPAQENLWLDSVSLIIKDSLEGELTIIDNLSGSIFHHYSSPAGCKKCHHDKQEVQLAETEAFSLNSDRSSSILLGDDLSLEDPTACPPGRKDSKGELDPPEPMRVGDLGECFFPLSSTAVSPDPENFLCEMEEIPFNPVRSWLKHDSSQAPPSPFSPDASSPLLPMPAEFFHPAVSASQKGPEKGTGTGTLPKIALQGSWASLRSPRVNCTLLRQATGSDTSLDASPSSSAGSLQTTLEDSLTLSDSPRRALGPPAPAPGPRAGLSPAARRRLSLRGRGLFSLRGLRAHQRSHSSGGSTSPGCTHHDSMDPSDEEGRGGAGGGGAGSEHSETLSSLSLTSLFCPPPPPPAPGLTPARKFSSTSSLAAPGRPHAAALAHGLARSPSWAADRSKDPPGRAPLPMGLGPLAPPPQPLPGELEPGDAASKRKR
# test: Inhibition of human Cav3.3 expressed in tsA-201 cells by patch clamp electrophysiology
# Assay type: cell-based
# condition_details: read-out: IC50
observation_type: IC50 (µM)

>>> print(df.to_string())
                                   compound                         target_under_test  observation_type  uom  reading
0  O=C(CC1c2ccccc2N=C(SCCCCCN2CCCC2)N1c1ccc(-c2ccc(F)cc2)cc1)NCc1ccc(F)cc1 (stereo not given)  Voltage-dependent T-type calcium channel subunit alpha-1I (Homo sapiens)              IC50   µM     19.8

A. CN(C)CCCCCSC1=Nc2ccccc2C(CC(=O)NCc2ccccc2)N1c1ccccc1 (stereo not given)
B. CN(C)CCCCCSC1=Nc2ccccc2C(CC(=O)NCc2ccc(F)cc2)N1c1ccc(-c2ccc(F)cc2)cc1 (stereo not given)
q: Given A and given B , which shows the smaller recorded IC50? Return value: the label identifying the chosen record.
a: B
(B: 0.96 µM, A: 3.2 µM)

A. CN(C)CCCCCSC1=Nc2ccccc2C(CC(=O)NCc2ccccc2)N1c1ccc(-c2ccccc2)cc1 (stereo not given)
B. O=C(CC1c2ccccc2N=C(SCCCCCN2CCCC2)N1c1ccc(-c2ccc(F)cc2)cc1)NCc1ccccc1 (stereo not given)
C. O=C(CC1c2ccccc2N=C(SCCCCCN2CCCC2)N1c1ccc(-c2ccccc2)cc1)NCc1ccc(F)cc1 (stereo not given)
D. O=C(CC1c2ccccc2N=C(SCCCCCN2CCCC2)N1c1ccc(-c2ccccc2)cc1)NCc1ccccc1 (stereo not given)
E. CN(C)CCCCCSC1=Nc2ccccc2C(CC(=O)NCc2ccccc2)N1c1ccc(-c2ccc(F)cc2)cc1 (stereo not given)
q: Put the compounds in ascending order of IC50. Please respond with the labels ordered as the question requires.
a: D, A, B, E, C

###

# Tested on: A549
# test: Cytotoxicity against human A549 cells assessed as reduction in cell viability after 48 hrs by MTT assay
# Assay type: functional, cell-based
# condition_details: A549, 48 h
observation_type: IC50 (µM)
The answer is to be given in µM; state only the numeric part.

>>> df
                                   compound  observation_type  reading
0  O=C(CC1c2ccccc2N=C(SCCCCCN2CCCC2)N1c1ccc(-c2ccccc2)cc1)NCc1ccccc1 (centres undefined)              IC50     14.9

Lab note: CN(C)CCCCCSC1=Nc2ccccc2C(CC(=O)NCc2ccccc2)N1c1ccc(-c2ccccc2)cc1 (centres undefined) gave IC50 of 18.1

The reported IC50 of the compound O=C(CC1c2ccccc2N=C(SCCCCCN2CCCC2)N1c1ccc(-c2ccc(F)cc2)cc1)NCc1ccc(F)cc1 (centres undefined) was 12.6

The reported value for CN(C)CCCCCSC1=Nc2ccccc2C(CC(=O)NCc2ccccc2)N1c1ccccc1 (centres undefined) in terms of IC50 is 138

###

# target_under_test: Voltage-dependent T-type calcium channel subunit alpha-1H (Homo sapiens)
# test: Inhibition of human Cav3.2 expressed in tsA-201 cells at 10uM by patch clamp electrophysiology
# Format: cell-based
observation_type: inhibition (%)

Study these solved cases before continuing.
                                   molecule  observation_type  reading
0  CN(C)CCCCCN(C)C1=Nc2ccccc2C(CC(=O)NCc2ccccc2)N1c1ccc(-c2ccccc2)cc1 (configuration not stated)        inhibition     89.3
1  O=C(CC1c2ccccc2N=C(SCCCCCN2CCCC2)N1c1ccccc1)NCc1ccccc1 (configuration not stated)        inhibition     61.6
2  CN(C)CCCCCSC1=Nc2ccccc2C(CC(=O)NCc2ccccc2)N1c1ccc(-c2ccc(F)cc2)cc1 (configuration not stated)        inhibition     75.6
3  O=C(CC1c2ccccc2N=C(SCCCCCN2CCCC2)N1c1ccc(-c2ccc(F)cc2)cc1)NCc1ccccc1 (configuration not stated)        inhibition     97.5
4  CN(C)CCCCCSC1=Nc2ccccc2C(CC(=O)NCc2ccc(F)cc2)N1c1ccc(-c2ccc(F)cc2)cc1 (configuration not stated)        inhibition     84.8

P. CN(C)CCCCCSC1=Nc2ccccc2C(CC(=O)NCc2ccccc2)N1c1ccc(-c2ccccc2)cc1 (configuration not stated)
Q. CN(C)CCCCCSC1=Nc2ccccc2C(CC(=O)NCc2ccccc2)N1c1ccccc1 (configuration not stated)
q: Determine, for P and Q , which has the greater value of inhibition. Your choice should be expressed through its label.
a: P

Cited source: ChEMBL document CHEMBL4622846
